# reported pIC50; entries follow
molecular target: JAK2 (a.a. 828-1132) (Homo sapiens, UniProt O60674); construct: JAK2 (a.a. 828-1132); His tag (N); experiment: In vitro JAK kinase assay (HTRF, phosphorylation of biotinylated peptide), JAK2; format: biochemical; conditions: Table F; 1 mM ATP
Sequence (O60674 828-1132): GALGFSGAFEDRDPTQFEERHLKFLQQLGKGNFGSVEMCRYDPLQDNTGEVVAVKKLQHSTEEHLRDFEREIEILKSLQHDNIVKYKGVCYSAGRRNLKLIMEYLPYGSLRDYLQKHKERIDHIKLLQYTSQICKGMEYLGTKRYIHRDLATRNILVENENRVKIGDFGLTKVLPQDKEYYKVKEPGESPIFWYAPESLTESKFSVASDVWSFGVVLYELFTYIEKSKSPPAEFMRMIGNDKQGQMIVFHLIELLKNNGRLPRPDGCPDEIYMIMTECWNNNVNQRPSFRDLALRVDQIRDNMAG
pIC50: −log10 of the molar value. Structures can show the parent of a compound that is named as a salt.

These recorded examples may help you get a feel for the data.
Data request: Answer with the recorded pIC50 for the compound listed here: N#CC[C@]1(n2cc(-c3ncnc4[nH]ccc34)cn2)C[C@H](N2CCN(C(=O)N[C@@H]3CCOC3)CC2)C1 [Example 87]
Data returned: < 7.00

Data request: Answer with the recorded pIC50 for the compound listed here: CN(C)CCCN(C)C(=O)N1CCN([C@H]2C[C@](CC#N)(n3cc(-c4ncnc5[nH]ccc45)cn3)C2)CC1 [Example 82]
Data returned: < 7.00

Data request: Answer with the recorded pIC50 for the compound listed here: CNC(=O)N1CCN([C@H]2C[C@](CC#N)(n3cc(-c4ncnc5[nH]ccc45)cn3)C2)CC1 [Example 112]
Data returned: 7.00 to 7.60

***
Data request: Answer with the recorded pIC50 for the compound listed here: CC(C)(CO)NCc1cc(OC2CCN([C@H]3C[C@](CC#N)(n4cc(-c5ncnc6[nH]ccc56)cn4)C3)CC2)nc(C(F)(F)F)c1 [Example 153]
Data returned: 7.00 to 7.60

Data request: Answer with the recorded pIC50 for the compound listed here: CN(C)Cc1cc(C#N)cc(OC2CCN([C@H]3C[C@](CC#N)(n4cc(-c5ncnc6[nH]ccc56)cn4)C3)CC2)c1 [Example 137]
Data returned: < 7.00

Data request: Answer with the recorded pIC50 for the compound listed here: N#CC[C@]1(n2cc(-c3ncnc4[nH]ccc34)cn2)C[C@H](N2CCC(Oc3cc(CN)cc(C(F)(F)F)n3)CC2)C1 [Example 129]
Data returned: 7.00 to 7.60

Data request: Answer with the recorded pIC50 for the compound listed here: N#CC[C@]1(n2cc(-c3ncnc4[nH]ccc34)cn2)C[C@H](N2CCN(C(=O)NCC3CC3)CC2)C1 [Example 92, trifluoroacetate salt]
Data returned: 7.00 to 7.60
